Where do these numbers come from? They come from patent US20230399395A1.

# System Name: T1, human IL5 (human, UniProt P05113 20-134, biotinylated (IL5-biotin) in Examples 2, 5, 6, 9 and 11; site not stated)
# T1 construct: also called interleukin 5; IL5 antigen protein
# Test Description: BLI (Fortebio Red96), 1:1 global fit
pKd: −log10 of the molar value.
Form field: pKd (one value per entry).

Please review the entries below; each comes with its answer.
{"Binder": "Nb66 (VHH, Camel nanobody, prokaryotic expression from the pMECS vector; It was detected with anti-HA antibody) VHH: QVQLQESGGGSVQAGGSLRLSCAASGYTVSSNMGWFRQAPGKEREGVAAIYPDGATYYADSVKGRFTISQDNAENTVYLQMNSLKPEDTAMYYCAADLAFNGLGTLALHGYWGQGTQVTVSS", "pKd": "> 9.00"}
{"Binder": "Nb92 (VHH, Camel nanobody, prokaryotic expression from the pMECS vector; It was detected with anti-HA antibody) VHH: QVQLQESGGGLVQPGGSLRLSCAASGFTFSNYYMSWVRQAPGKGLEWVSSISSDGSNTYYEDSVKGRFTISRDNANNTLYLQMNSLKSEDTALYHCATDLYDDSWYDHWGQGTQVTVSS", "pKd": "> 9.00"}
{"Binder": "Nb21 (VHH, Camel nanobody, prokaryotic expression from the pMECS vector; also called Nb21-biotin) VHH: QVQLQESGGGSAQAGGSLKLSCVVSGYPYSGDYCMGWFRQAPGKEREGVAAFYTGGGSTYYADSVKGRFTTSQDNATSTFHLQMNSLKPEDTATYYCAADPWSVYGGSCGVKDPNPKAFNYWGQGTQVTVSS", "pKd": "> 9.00"}

Now take the following binder into account.
Fill in: pKd of Nb25 (VHH, Camel nanobody, prokaryotic expression from the pMECS vector; It was detected with anti-HA antibody) VHH: QVQLQESGGGSVQAGGSLRLSCAASEYTYSRYCMGWFRQVPGKEREGVATIDSDGSTSYADSVKGRFTISKDNAKNTLYLQMNSLKPEDTAMYYCAARYFYIATTGLRPCGEYEYNYWGQGTQVTVSS is ___
> 9.00
